molecular target: human pyruvate dehydrogenase (E1p) component, heterotetramer alpha2beta2 (Homo sapiens, UniProt P08559+P11177, P08559:Y118F); assay: tryptophan fluorescence quenching
Sequence (P08559 30-390 Y118F): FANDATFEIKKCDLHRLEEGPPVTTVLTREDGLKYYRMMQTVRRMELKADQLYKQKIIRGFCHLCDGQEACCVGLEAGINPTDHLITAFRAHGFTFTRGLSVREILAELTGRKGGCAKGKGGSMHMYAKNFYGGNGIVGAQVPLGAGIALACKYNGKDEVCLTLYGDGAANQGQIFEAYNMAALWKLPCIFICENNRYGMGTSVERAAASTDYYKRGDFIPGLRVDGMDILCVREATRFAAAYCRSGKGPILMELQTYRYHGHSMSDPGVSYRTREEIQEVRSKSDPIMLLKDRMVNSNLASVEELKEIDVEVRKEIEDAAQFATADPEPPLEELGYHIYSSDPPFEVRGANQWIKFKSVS
Sequence (P11177 31-359): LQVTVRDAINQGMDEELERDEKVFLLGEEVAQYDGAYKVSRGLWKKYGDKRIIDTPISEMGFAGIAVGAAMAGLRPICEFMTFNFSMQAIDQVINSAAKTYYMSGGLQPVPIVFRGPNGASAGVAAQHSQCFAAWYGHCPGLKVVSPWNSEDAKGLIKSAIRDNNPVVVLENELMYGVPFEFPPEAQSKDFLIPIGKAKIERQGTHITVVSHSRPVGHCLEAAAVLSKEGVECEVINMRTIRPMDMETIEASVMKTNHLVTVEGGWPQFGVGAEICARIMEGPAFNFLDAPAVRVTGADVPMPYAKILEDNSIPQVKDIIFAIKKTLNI
REPORTED PROPERTY: Kd

Consider Cc1ncc(C[n+]2csc(CCO[P@](=O)(O)OP(=O)(O)O)c2C)c(N)n1 . Its measured Kd is 50.2 µM

----------
target: human pyruvate dehydrogenase (E1p) component, heterotetramer alpha2beta2 (Homo sapiens, UniProt P08559+P11177); assay: tryptophan fluorescence quenching
Sequence (P08559 30-390, one chain of several): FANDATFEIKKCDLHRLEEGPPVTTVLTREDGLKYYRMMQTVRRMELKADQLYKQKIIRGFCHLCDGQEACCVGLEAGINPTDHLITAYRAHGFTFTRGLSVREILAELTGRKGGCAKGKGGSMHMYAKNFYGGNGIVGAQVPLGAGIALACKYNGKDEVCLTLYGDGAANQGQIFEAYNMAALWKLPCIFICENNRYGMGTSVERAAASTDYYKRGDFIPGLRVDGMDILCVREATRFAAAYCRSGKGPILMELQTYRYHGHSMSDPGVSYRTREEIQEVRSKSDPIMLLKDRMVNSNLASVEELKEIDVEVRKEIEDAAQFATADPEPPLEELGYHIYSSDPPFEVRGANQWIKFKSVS
REPORTED PROPERTY: pKd
Units for pKd: none; it is -log10 of a concentration expressed in mol/L.

What the record says about Cc1ncc(C[n+]2csc(CCO[P@](=O)(O)OP(=O)(O)O)c2C)c(N)n1 [ThDP] : pKd is 6.96
